Each item that follows carries a reported viability, T/C.
Tested on: 485368-065-R3-J5-PDC spheroids with HUVEC/MSC, viability;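 further: spheroids exposed to agents for seven days before readout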
Experimental details: Anticancer human tumor 485368-065-R3-J5-PDC patient-derived pancreatic carcinoma cell line growth inhibition [RAS]
Condition parameters: second compound 0.000949 µM; first compound 0.00316 µM; active compounds read low
// return numeric value only (unit: %, not printed)

// known answers, use as guide
• Nc1ccn(C2OC(CO)C(O)C2(F)F)c(=O)n1 (configuration not stated) + CCn1c(-c2cc(N3CCN(C)CC3)cnc2C(C)OC)c2c3cc(ccc31)-c1csc(n1)CC(NC(=O)C1CC1C)C(=O)N1CCCC(N1)C(=O)OCC(C)(C)C2 = 31
• CCN1CCN(Cc2ccc(Nc3ncc(F)c(-c4cc(F)c5nc(C)n(C(C)C)c5c4)n3)nc2)CC1 + CCn1c(-c2cc(N3CCN(C)CC3)cnc2C(C)OC)c2c3cc(ccc31)-c1csc(n1)CC(NC(=O)C1CC1C)C(=O)N1CCCC(N1)C(=O)OCC(C)(C)C2 = 31.4
• CCN1CCN(Cc2ccc(Nc3ncc(F)c(-c4cc(F)c5nc(C)n(C(C)C)c5c4)n3)nc2)CC1 + CCn1c(-c2cccnc2C(C)OC)c2c3cc(ccc31)N1CCOC(CC(NC(=O)C(C(C)C)N(C)C(=O)C3(F)CCN(C(=O)C#CC(C)(C)N(C)C)CC3)C(=O)N3CCCC(N3)C(=O)OCC(C)(C)C2)C1 = 103
• C=CC(=O)N1CCN(c2nc(OCC3CCCN3C)nc3c(F)c(-c4nc(N)cc(C)c4C(F)(F)F)c(Cl)cc23)C(C)C1 (configuration not stated) + CCn1c(-c2cccnc2C(C)OC)c2c3cc(ccc31)N1CCOC(CC(NC(=O)C(C(C)C)N(C)C(=O)C3(F)CCN(C(=O)C#CC(C)(C)N(C)C)CC3)C(=O)N3CCCC(N3)C(=O)OCC(C)(C)C2)C1 = 113
• C=CC(=O)Nc1cc(Nc2nccc(-c3cn(C)c4ccccc34)n2)c(OC)cc1N(C)CCN(C)C + CCn1c(-c2cccnc2C(C)OC)c2c3cc(ccc31)N1CCOC(CC(NC(=O)C(C(C)C)N(C)C(=O)C3(F)CCN(C(=O)C#CC(C)(C)N(C)C)CC3)C(=O)N3CCCC(N3)C(=O)OCC(C)(C)C2)C1 = 104
• O=C(c1ccc(F)c(F)c1Nc1ccc(I)cc1F)N1CC(O)([C@@H]2CCCCN2)C1 + CCn1c(-c2cc(N3CCN(C)CC3)cnc2C(C)OC)c2c3cc(ccc31)-c1csc(n1)CC(NC(=O)C1CC1C)C(=O)N1CCCC(N1)C(=O)OCC(C)(C)C2 = 32.9

Suppose we examine the compound CC(C)n1nc(-c2ccc3oc(N)nc3c2)c2c(N)ncnc21 + CCn1c(-c2cccnc2C(C)OC)c2c3cc(ccc31)N1CCOC(CC(NC(=O)C(C(C)C)N(C)C(=O)C3(F)CCN(C(=O)C#CC(C)(C)N(C)C)CC3)C(=O)N3CCCC(N3)C(=O)OCC(C)(C)C2)C1 ; what viability, T/C value has been reported? 84.2

Suppose we examine the compound C=CC(=O)N1CCN(c2nc(OCC3CCCN3C)nc3c(F)c(-c4nc(N)cc(C)c4C(F)(F)F)c(Cl)cc23)C(C)C1 (configuration not stated) + CCn1c(-c2cc(N3CCN(C)CC3)cnc2C(C)OC)c2c3cc(ccc31)-c1csc(n1)CC(NC(=O)C1CC1C)C(=O)N1CCCC(N1)C(=O)OCC(C)(C)C2 ; what viability, T/C value has been reported? 32.9

Suppose we examine the compound O=C(c1ccc(F)c(F)c1Nc1ccc(I)cc1F)N1CC(O)([C@@H]2CCCCN2)C1 + CCn1c(-c2cccnc2C(C)OC)c2c3cc(ccc31)N1CCOC(CC(NC(=O)C(C(C)C)N(C)C(=O)C3(F)CCN(C(=O)C#CC(C)(C)N(C)C)CC3)C(=O)N3CCCC(N3)C(=O)OCC(C)(C)C2)C1 ; what viability, T/C value has been reported? 101

Suppose we examine the compound C=CC(=O)Nc1cc(Nc2nccc(-c3cn(C)c4ccccc34)n2)c(OC)cc1N(C)CCN(C)C + CCn1c(-c2cc(N3CCN(C)CC3)cnc2C(C)OC)c2c3cc(ccc31)-c1csc(n1)CC(NC(=O)C1CC1C)C(=O)N1CCCC(N1)C(=O)OCC(C)(C)C2 ; what viability, T/C value has been reported? 38.2

Suppose we examine the compound Nc1ccn(C2OC(CO)C(O)C2(F)F)c(=O)n1 (configuration not stated) + CCn1c(-c2cccnc2C(C)OC)c2c3cc(ccc31)N1CCOC(CC(NC(=O)C(C(C)C)N(C)C(=O)C3(F)CCN(C(=O)C#CC(C)(C)N(C)C)CC3)C(=O)N3CCCC(N3)C(=O)OCC(C)(C)C2)C1 ; what viability, T/C value has been reported? 94.9

Suppose we examine the compound CC(C)n1nc(-c2ccc3oc(N)nc3c2)c2c(N)ncnc21 + CCn1c(-c2cc(N3CCN(C)CC3)cnc2C(C)OC)c2c3cc(ccc31)-c1csc(n1)CC(NC(=O)C1CC1C)C(=O)N1CCCC(N1)C(=O)OCC(C)(C)C2 ; what viability, T/C value has been reported? 25.4
